tested on: L1210 leukemia ip in BDF1 mice, survival T/C; assay: NCI In Vivo Anticancer Drug Screen. Data for tumor model L1210 Leukemia (intraperitoneal) in B6D2F1 (BDF1) mice; conditions: endpoint: mean survival time; dose: 400.0 mg/kg/injection; schedule: Q04DX003 (ip); vehicle: Klucel (hydroxypropylcellulose) (HPC); higher = longer survival
Inconclusive results and toxic doses are left out.
Task for the reader: assign each of the following compounds its reported T/C.

Worked examples, 3 compounds total:
1. CSc1ccc(/C=N/NC(N)=S)c(SC)n1
96 % of control
2. O=C(O)[C@H]1CCCC[C@H]1C(=O)O
100 % of control
3. CCOC(=O)C(=O)Cc1sccc1[N+](=O)[O-]
100 % of control

Hey, can you go through the list below and give me T/C for every item?
1. c1ccc(C2=C(c3ccccc3)N=c3ccccc3=c3ccccc3=N2)cc1
2. CCCCCCCCCCCCCCCOc1ccc(C)cc1
3. CC(=O)Nc1ccc(OC(=O)Nc2cc(C)ccc2C)cc1

1. 102 % of control
2. 95 % of control
3. 93 % of control

Hey, can you go through the list below and give me T/C for every item?
1. C=CCNC(=S)Nc1ccc(C)cc1
2. O=S1(=O)C(Cc2ccccc2)CCC1Cc1ccccc1 (stereo not given)
3. CC(C)N(C(=O)Nc1ccccc1Cl)c1ccccc1
4. O=C1c2ccccc2C(=O)N1c1ccc(CBr)cc1
5. O=C(Nc1ccccc1F)C(F)(F)F
6. CCCCNC(=O)Nc1ccc(CC)cc1
7. O=C(CS(=O)(=O)Cc1ccccc1)c1ccccc1

1: 88 % of control; 2: 102 % of control; 3: 92 % of control; 4: 102 % of control; 5: 97 % of control; 6: 100 % of control; 7: 101 % of control

Hey, can you go through the list below and give me T/C for every item?
1. O=c1[nH]nc(-c2ccc(Cl)cc2Cl)s1
2. Cc1ccc(Oc2cccc(C(=O)O)c2)cc1
3. O=C(Oc1ccccc1Cl)c1ccc(Cl)cc1Cl
4. Cc1cccc(C)c1NS(=O)(=O)c1ccccc1
5. CCCNC(=S)NC
6. COC(=O)C(C)NC(=O)CNC(=O)CNC(=O)OCc1ccccc1 (stereo not given)
7. O=C1C(Cl)=C(Nc2ccccc2)C(=O)c2ccccc21

1. 112 % of control
2. 118 % of control
3. 98 % of control
4. 104 % of control
5. 109 % of control
6. 95 % of control
7. 102 % of control

* * *

tested on: L1210 leukemia ip in BDF1 mice, survival T/C; assay: NCI In Vivo Anticancer Drug Screen. Data for tumor model L1210 Leukemia (intraperitoneal) in B6D2F1 (BDF1) mice; details: endpoint: mean survival time; dose: 200.0 mg/kg/injection; schedule: Q04DX003 (ip); vehicle: other; higher = longer survival
Toxic doses and inconclusive results are not listed.
Experimental readout: T/C

Worked examples, 9 compounds total:
1. CC1C2CCC(C2)C(C)C1Br (stereo not given)
102 % of control
2. O=[N+]([O-])c1ccc(N/N=C(\c2ccccc2)c2ccc(O)cc2O)c([N+](=O)[O-])c1
96 % of control
3. CC[NH-].CC[NH-].[Br][Pt+2][Br]
105 % of control
4. S=c1[nH]c2ccccc2s1
96 % of control
5. O=C(C1=CC(c2ccccc2)=Nc2ccccc2N1)c1ccccc1
110 % of control
6. O=C(O)COc1ccc(Cl)cc1Cl (tested in a mixture with another compound)
95 % of control
7. CC1(O)CC2CCC1C2 (stereo not given)
100 % of control
8. Cc1oncc1/C=C/c1ccon1
91 % of control
9. CCCCCCC(C)O[Si](C)Cc1ccccc1 (stereo not given)
97 % of control

Here's the next entry for you.
Please give measured T/C of the following entry: CCCCNC(=O)c1ccccc1N
92 % of control

* * *

test system: L1210 leukemia ip in BDF1 mice, survival T/C; assay: NCI In Vivo Anticancer Drug Screen. Data for tumor model L1210 Leukemia (intraperitoneal) in B6D2F1 (BDF1) mice; conditions: endpoint: mean survival time; dose: 100.0 mg/kg/injection; schedule: Q04DX003 (ip); vehicle: Klucel (hydroxypropylcellulose) (HPC); higher = longer survival
Inconclusive results and toxic doses are left out.
Experimental readout: T/C

Worked examples, 8 molecules total:
1. CCSCCOC(=S)Nc1ccccc1
98 % of control
2. O=C(O)[C@H]1CCCC[C@H]1C(=O)O
95 % of control
3. CCOc1ccc(NC(=S)NC(=O)c2ccco2)cc1
104 % of control
4. COc1ccc(NC(=O)Nc2cc(Cl)ccc2OC)c(OC)c1
103 % of control
5. Cc1ccc(N2C(=O)CC(Sc3ccccc3N)C2=O)cc1Cl (stereo unspecified)
93 % of control
6. c1ccc(C2=C(c3ccccc3)N=c3ccccc3=c3ccccc3=N2)cc1
94 % of control
7. C=CCc1c[nH]c(=O)[nH]c1=O.[Hg]
97 % of control
8. COc1ccc(C(=O)CCC(=O)O)c2ccccc12
92 % of control

Hey, can you go through the list below and give me T/C for every item?
1. CN(C)c1ccc(/C=C/c2nc3ccc(Cl)cc3[nH]2)cc1
2. Cc1cc(=O)[nH]c(N)n1
3. C#CCn1cnc2c(=S)nc[nH]c21
4. COc1cccc(CCNC(=O)CCC#N)c1
5. O=[N+]([O-])C(Br)(c1ccccc1)S(=O)(=O)Cc1ccccc1 (stereo unspecified)

1: 96 % of control; 2: 114 % of control; 3: 113 % of control; 4: 97 % of control; 5: 100 % of control

Hey, can you go through the list below and give me T/C for every item?
1. CCOC(=O)C(=Cc1ccccc1OC)C(=O)OCC
2. O=CN/N=C/c1cc(Cl)cc(Cl)c1O
3. O=[N+]([O-])c1ccccc1NC1c2ccccc2Oc2ccccc21
4. O=C(c1ccccc1)c1nnc(C(=O)c2ccccc2)nn1
5. O=c1[nH]nc(-c2ccc(Cl)cc2Cl)s1
6. CN(C(=S)SSC(=S)N(C)c1ccccc1)c1ccccc1
7. Cc1cc(N(CCOS(C)(=O)=O)CCOS(C)(=O)=O)ccc1C=Nc1ccc(-c2csc(COc3ccccc3)n2)cc1

1. 94 % of control
2. 100 % of control
3. 96 % of control
4. 102 % of control
5. 95 % of control
6. 105 % of control
7. 98 % of control

Hey, can you go through the list below and give me T/C for every item?
1. CCCCCCCCCCCCCCCOc1ccc(C)cc1
2. COc1ccccc1NC(N)=S
3. c1ccc(N=Nc2ccc(NC3=NCCO3)cc2)cc1
4. C=CCNC(=S)Nc1cc(Cl)ccc1C
5. O=S1(=O)C(Cc2ccccc2)CCC1Cc1ccccc1 (stereo unspecified)

93 % of control
103 % of control
95 % of control
92 % of control
102 % of control

Hey, can you go through the list below and give me T/C for every item?
1. O=C1C=C(OCc2ccccc2)C(=O)C(OCc2ccccc2)=C1
2. O=C(c1ccc(Br)cc1)C1C(c2ccccc2)N1C1CCCCC1 (stereo unspecified)
3. CN(C)/C=N/Nc1ccc([N+](=O)[O-])cc1[N+](=O)[O-]

1: 93 % of control; 2: 98 % of control; 3: 102 % of control

* * *

tested on: L1210 leukemia ip in BDF1 mice, survival T/C; test: NCI In Vivo Anticancer Drug Screen. Data for tumor model L1210 Leukemia (intraperitoneal) in B6D2F1 (BDF1) mice; settings: endpoint: mean survival time; dose: 200.0 mg/kg/injection; schedule: Q04DX002 (ip); vehicle: Klucel (hydroxypropylcellulose) (HPC); higher = longer survival
Inconclusive results and toxic doses are left out.
Experimental readout: T/C

1) CC(C)OC(=O)Nc1cccnc1
98 % of control
2) O=C(O)Cn1cc(Cl)cc(Cl)c1=O
107 % of control
3) O=C(NCc1ccccc1Cl)NC1CCCCC1
102 % of control
4) O=C(O)c1ccc[cH-]1.O=C(O)c1ccc[cH-]1.[Fe+2]
100 % of control

Name the value of T/C reported for Cc1ccc([N+](=O)[O-])cc1NC(=O)N(CC(O)c1ccccc1)C1CCCCC1 (stereo not given) when tested on L1210 leukemia ip in BDF1 mice, survival T/C.
97 % of control

* * *

system: L1210 leukemia ip in BDF1 mice, survival T/C; experiment: NCI In Vivo Anticancer Drug Screen. Data for tumor model L1210 Leukemia (intraperitoneal) in B6D2F1 (BDF1) mice; details: endpoint: mean survival time; dose: 400.0 mg/kg/injection; schedule: Q01DX009 (ip); vehicle: saline; higher = longer survival
Toxic doses and inconclusive results are not listed.
Experimental readout: T/C

1. COc1cc([N+](=O)[O-])c(C)cc1NCc1ccc(OC)c(OC)c1
94 % of control

Hey, can you go through the list below and give me T/C for every item?
1. CN(C)/C=N/NC(=O)c1ccncc1
2. O=C(N1C(c2ccc(Cl)cc2)CC2(CC1c1ccc(Cl)cc1)SSC1(CC(c3ccc(Cl)cc3)N(C(=O)C(F)(F)F)C(c3ccc(Cl)cc3)C1)S2)C(F)(F)F (configuration not stated)
3. CC(C)(C)S(=O)(=O)CCCCS(=O)(=O)C(C)(C)C
4. O=C(O)C1CCC[N-]C1.O=C(O)C1CCC[N-]C1.O=C(O)C1CCC[N-]C1.O=C(O)C1CCC[N-]C1.[Cl][Rh][Cl] (configuration not stated)
5. COc1ccc(C=NCCc2ccc(OC)c(OC)c2)cc1OC

1. 108 % of control
2. 105 % of control
3. 105 % of control
4. 90 % of control
5. 97 % of control

Please give measured T/C of the following entry: CC(N)(Cc1ccc(O)c(O)c1)C(=O)O (configuration not stated)
117 % of control

Every entry's value here was drawn from PubChem BioAssay AID248.
